# tested_system: 5-HT2B receptor (Homo sapiens)
# Sequence (P41595 whole entry): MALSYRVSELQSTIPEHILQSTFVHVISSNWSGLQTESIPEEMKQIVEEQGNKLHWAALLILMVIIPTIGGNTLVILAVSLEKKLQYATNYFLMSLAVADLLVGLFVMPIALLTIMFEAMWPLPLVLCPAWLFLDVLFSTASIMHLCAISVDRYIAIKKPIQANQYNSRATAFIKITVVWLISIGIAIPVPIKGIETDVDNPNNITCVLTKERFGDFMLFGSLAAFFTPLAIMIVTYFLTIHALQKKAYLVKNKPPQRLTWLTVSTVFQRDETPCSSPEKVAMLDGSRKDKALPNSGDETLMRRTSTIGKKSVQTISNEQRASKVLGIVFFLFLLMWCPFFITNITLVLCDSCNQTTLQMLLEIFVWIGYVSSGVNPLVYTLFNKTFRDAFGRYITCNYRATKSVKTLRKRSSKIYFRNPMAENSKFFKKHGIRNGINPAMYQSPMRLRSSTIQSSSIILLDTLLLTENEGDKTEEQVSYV
# test_method_notes: 5-HT2B functional assay (agonism), HTRF quantitation of IP1 accumulation
# Assay type: cell-based
# assay_conditions: result in words
readout: 5-HT2B agonism (type of agonist)

[
  {
    "smiles_notation": "CCNC(=O)N(CCCN(C)C)C(=O)[C@@H]1C[C@@H]2c3cccc4c3c(cn4C)C[C@H]2N(C)C1",
    "readout_value": "no agonism"
  },
  {
    "smiles_notation": "C=CCN1C[C@H](C(=O)N(CCCN(C)C)C(=O)NCC)C[C@@H]2c3cccc4[nH]cc(c34)C[C@H]21",
    "readout_value": "full agonists"
  },
  {
    "smiles_notation": "COC(OC)[C@@H]1C[C@@H]2c3cccc4c3c(cn4C)C[C@H]2N(C)C1",
    "readout_value": "no agonism"
  },
  {
    "smiles_notation": "C=CCN1C[C@H](C(=O)N(CCCN2CCOCC2)C(=O)NCC)C[C@@H]2c3cccc4[nH]cc(c34)C[C@H]21",
    "readout_value": "full agonists"
  }
]

====

# tested_system: D2 receptor (Homo sapiens, UniProt P14416)
# Sequence (P14416 whole entry): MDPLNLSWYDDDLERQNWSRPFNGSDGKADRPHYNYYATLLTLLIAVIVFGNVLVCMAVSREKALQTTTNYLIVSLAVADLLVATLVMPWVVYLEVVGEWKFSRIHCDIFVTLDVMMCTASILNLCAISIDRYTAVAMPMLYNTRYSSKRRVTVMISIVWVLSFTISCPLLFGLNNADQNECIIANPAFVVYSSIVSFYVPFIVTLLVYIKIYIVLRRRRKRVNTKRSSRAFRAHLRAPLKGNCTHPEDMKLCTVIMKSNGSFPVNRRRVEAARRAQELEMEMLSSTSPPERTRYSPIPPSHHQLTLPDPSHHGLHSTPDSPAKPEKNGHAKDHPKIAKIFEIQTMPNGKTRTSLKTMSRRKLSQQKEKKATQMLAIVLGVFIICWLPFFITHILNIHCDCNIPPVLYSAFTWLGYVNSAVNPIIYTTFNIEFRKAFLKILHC
# test_method_notes: D2 functional assay
readout: EC50 (nM)
Give the number; nM is assumed, so skip it.

Task item: // fetch EC50 given entry CCNC(=O)N(CCCN(C)C)C(=O)[C@@H]1C[C@@H]2c3cccc4c3c(cn4C)C[C@H]2N(C)C1 [Compound 9, 1,6-Dimethylcabergoline]
Reply: 1.4

Reference source for all entries: patent US9670199B2
